# Target of assay: human recombinant HDAC6 (Homo sapiens, UniProt Q9UBN7)
# Construct: purchased Calbiochem 382180
# Experimental details: HDAC6 enzyme activity inhibition assay (HDAC Fluorimetric Drug Discovery Kit)
# Type: biochemical
# Run conditions: human recombinant HDAC6, same protocol as HDAC1; read-out: HDAC6
Measured IC50, listed per entry for reference.
Answer with a number only, understood to be in nM.

smiles_structure=COc1ccc(N(Cc2ccc(-c3nnc(C(F)F)o3)cc2F)C(=O)N2CCS(=O)(=O)CC2)cc1 target_of_assay="human recombinant HDAC6 (Homo sapiens, UniProt Q9UBN7)" recorded_value=37
smiles_structure=O=C(N1CCS(=O)(=O)CC1)N(Cc1ccc(-c2nnc(C(F)F)o2)cc1)c1ccccc1 target_of_assay="human recombinant HDAC6 (Homo sapiens, UniProt Q9UBN7)" recorded_value=35.4
smiles_structure=O=C(N1CCS(=O)(=O)CC1)N(Cc1ccc(-c2nnc(C(F)F)o2)cc1F)c1ccsc1 target_of_assay="human recombinant HDAC6 (Homo sapiens, UniProt Q9UBN7)" recorded_value=99

Exam item: Sample CCN1CCN(C(=O)N(Cc2ccc(-c3nnc(C(F)F)o3)cc2)c2cccc(Cl)c2)CC1 — what was its IC50?
Marked response: 46

Exam item: Endpoint output: IC50 of O=C(NCCN1CCN(c2ccccc2)CC1)N(Cc1ccc(-c2nnc(C(F)F)o2)cc1F)c1ccccc1 . Value?
Marked response: 249

Exam item: So what's the measured IC50 for this one? O=C(N1CCOCC1)N(Cc1ccc(-c2nnc(C(F)(F)F)o2)cn1)c1ccc(Cl)cc1
Marked response: 261

Exam item: So what's the measured IC50 for this one? CS(=O)(=O)N1CCN(C(=O)N(Cc2ccc(-c3nnc(C(F)(F)F)o3)cc2)c2ccccc2)CC1
Marked response: 84.8

====

# Target of assay: human recombinant HDAC6 (Homo sapiens, UniProt Q9UBN7)
# Construct: purchased Calbiochem 382180
# Sequence (Q9UBN7 1-1215): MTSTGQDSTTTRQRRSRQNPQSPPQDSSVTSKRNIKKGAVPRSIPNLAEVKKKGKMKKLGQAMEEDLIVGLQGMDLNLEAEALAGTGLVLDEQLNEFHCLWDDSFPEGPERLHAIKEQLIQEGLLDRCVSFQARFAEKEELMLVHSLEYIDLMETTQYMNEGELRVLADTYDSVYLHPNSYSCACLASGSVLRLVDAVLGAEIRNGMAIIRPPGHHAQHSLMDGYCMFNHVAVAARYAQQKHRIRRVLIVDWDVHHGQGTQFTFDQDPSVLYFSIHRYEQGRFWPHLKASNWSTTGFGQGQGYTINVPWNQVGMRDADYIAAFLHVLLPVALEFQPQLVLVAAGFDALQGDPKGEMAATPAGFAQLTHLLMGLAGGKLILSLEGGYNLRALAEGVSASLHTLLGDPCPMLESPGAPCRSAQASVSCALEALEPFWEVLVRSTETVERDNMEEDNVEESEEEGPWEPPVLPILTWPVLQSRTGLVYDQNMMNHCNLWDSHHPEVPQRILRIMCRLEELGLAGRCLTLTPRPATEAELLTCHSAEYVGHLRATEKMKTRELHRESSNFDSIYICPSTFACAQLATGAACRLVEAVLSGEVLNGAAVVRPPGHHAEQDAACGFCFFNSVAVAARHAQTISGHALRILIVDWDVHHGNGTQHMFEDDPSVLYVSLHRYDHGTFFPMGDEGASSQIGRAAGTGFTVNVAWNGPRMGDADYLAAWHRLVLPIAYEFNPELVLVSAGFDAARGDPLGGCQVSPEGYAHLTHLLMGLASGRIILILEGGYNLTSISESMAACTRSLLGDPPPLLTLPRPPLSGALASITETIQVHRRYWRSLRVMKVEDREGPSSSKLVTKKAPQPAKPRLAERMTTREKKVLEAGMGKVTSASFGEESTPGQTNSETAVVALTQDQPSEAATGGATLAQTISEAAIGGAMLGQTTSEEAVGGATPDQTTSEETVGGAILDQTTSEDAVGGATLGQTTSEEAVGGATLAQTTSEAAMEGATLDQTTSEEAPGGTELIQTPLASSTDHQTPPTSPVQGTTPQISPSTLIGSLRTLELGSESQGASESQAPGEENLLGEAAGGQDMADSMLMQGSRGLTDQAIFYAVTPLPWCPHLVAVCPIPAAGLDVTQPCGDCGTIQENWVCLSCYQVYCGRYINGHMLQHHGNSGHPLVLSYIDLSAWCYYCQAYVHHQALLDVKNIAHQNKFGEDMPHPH
# Experimental details: HDAC6 enzyme activity inhibition assay (HDAC Fluorimetric Drug Discovery Kit)
# Format: biochemical
# Run conditions: HDAC6 over HDAC1
Measure: HDAC6 selectivity (fold)
Answer format: numeric, fold implied, no suffix.

smiles_structure=O=C(N1CCN(C2COC2)CC1)N(Cc1ccc(-c2nnc(C(F)F)o2)cc1F)c1cccc(Cl)c1 recorded_value=611
smiles_structure=O=C(N1CC[C@@H](O)C1)N(Cc1ccc(-c2nnc(C(F)(F)F)o2)cc1F)c1ccc(F)c(Cl)c1 recorded_value=114
smiles_structure=Cc1cccc(N(Cc2ccc(-c3nnc(C(F)F)o3)cc2F)C(=O)N2CC3(COC3)C2)c1 recorded_value=215

Okay, next one:
Exam item: Which value of HDAC6 selectivity (fold) has been reported for O=C(N1CCS(=O)(=O)CC1)N(Cc1ccc(-c2nnc(C(F)(F)F)o2)cc1)c1cccc(Br)c1 in the records?
Marked response: 65

====

# Target of assay: human recombinant HDAC1 (Homo sapiens)
# Construct: purchased Enzo Life Science BML-SE456
# Sequence (Q13547 whole entry): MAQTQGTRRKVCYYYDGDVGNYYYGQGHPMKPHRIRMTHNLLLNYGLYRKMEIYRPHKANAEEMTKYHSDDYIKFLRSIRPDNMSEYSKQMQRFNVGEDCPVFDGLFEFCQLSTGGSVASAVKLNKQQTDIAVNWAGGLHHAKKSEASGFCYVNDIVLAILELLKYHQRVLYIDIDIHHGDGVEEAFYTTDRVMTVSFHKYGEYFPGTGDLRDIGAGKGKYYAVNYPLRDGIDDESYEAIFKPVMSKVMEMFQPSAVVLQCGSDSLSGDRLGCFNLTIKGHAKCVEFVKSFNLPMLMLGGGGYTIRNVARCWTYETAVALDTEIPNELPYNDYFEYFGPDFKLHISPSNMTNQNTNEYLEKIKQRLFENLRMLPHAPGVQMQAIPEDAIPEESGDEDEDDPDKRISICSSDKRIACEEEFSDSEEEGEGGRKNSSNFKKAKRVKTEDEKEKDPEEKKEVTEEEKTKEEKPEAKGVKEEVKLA
# Experimental details: HDAC1 enzyme activity inhibition assay (HDAC Fluorimetric Drug Discovery Kit)
# Assay type: biochemical
# Run conditions: human recombinant HDAC1, Fluor de Lys substrate 10 μM, 30° C. 60 minutes
Measure: IC50 (µM)
# output: bare number, implied unit µM

Recorded IC50, per entry:
compound="CCN1CCN(C(=O)N(Cc2ccc(-c3nnc(C(F)(F)F)o3)cc2F)c2ccc(F)c(Cl)c2)CC1 [Compound 21592]" recorded_value=8.28
compound="Cn1ncc2ccc(N(Cc3ccc(-c4nnc(C(F)F)o4)cc3F)C(=O)N3CCOCC3)cc21 [Compound 21724]" recorded_value=20.7
compound="O=C(N1CCOCC1)N(Cc1ccc(-c2nnc(C(F)(F)F)o2)cc1F)c1cccc(F)c1 [Compound 21846]" recorded_value=21.3
compound="O=C(N1CCS(=O)(=O)CC1)N(Cc1ccc(-c2nnc(C(F)(F)F)o2)cc1)c1cccc(-c2ccccc2)c1 [Compound 21439]" recorded_value=6.11
compound="O=C(N1CCOCC1)N(Cc1ccc(-c2nnc(C(F)(F)F)o2)cn1)c1ccc(F)cc1 [Compound 21840]" recorded_value=31.9
compound="CCN1CCN(C(=O)N(Cc2ccc(-c3nnc(C(F)(F)F)o3)cc2)c2cccc(Cl)c2)CC1 [Compound 21860]" recorded_value=18
compound="CCN1CCN(C(=O)N(Cc2ccc(-c3nnc(C(F)(F)F)o3)cn2)c2cccc(OC)c2)CC1 [Compound 21873]" recorded_value=14.9
compound="CN1CCN(C(=O)N(Cc2ccc(-c3nnc(C(F)F)o3)cc2F)c2cccc3c2cnn3C)CC1 [Compound 21709]" recorded_value=58.5
compound="O=C(N1CCC(F)(F)C1)N(Cc1ccc(-c2nnc(C(F)F)o2)cc1F)c1ccc(F)c(Cl)c1 [Compound 21667]" recorded_value=20.1
compound="CCN1CCN(C(=O)N(Cc2ccc(-c3nnc(C(F)F)o3)cc2)c2ccc(OC)cc2)CC1 [Compound 21892]" recorded_value=48.7

Exam item: What value of measured IC50 is listed for CCN1CCN(C(=O)N(Cc2ccc(-c3nnc(C(F)F)o3)cc2F)c2ccc(F)c(Br)c2)CC1 [Compound 21656] ?
Marked response: 36.5

Exam item: Can you share its IC50? I mean this compound: CCN1CCN(C(=O)N(Cc2ccc(-c3nnc(C(F)(F)F)o3)cn2)c2ccc(OC)cc2)CC1 [Compound 21876]
Marked response: 11.7

====

# Target of assay: human recombinant HDAC6 (Homo sapiens, UniProt Q9UBN7)
# Construct: purchased Calbiochem 382180
# Sequence (Q9UBN7 1-1215): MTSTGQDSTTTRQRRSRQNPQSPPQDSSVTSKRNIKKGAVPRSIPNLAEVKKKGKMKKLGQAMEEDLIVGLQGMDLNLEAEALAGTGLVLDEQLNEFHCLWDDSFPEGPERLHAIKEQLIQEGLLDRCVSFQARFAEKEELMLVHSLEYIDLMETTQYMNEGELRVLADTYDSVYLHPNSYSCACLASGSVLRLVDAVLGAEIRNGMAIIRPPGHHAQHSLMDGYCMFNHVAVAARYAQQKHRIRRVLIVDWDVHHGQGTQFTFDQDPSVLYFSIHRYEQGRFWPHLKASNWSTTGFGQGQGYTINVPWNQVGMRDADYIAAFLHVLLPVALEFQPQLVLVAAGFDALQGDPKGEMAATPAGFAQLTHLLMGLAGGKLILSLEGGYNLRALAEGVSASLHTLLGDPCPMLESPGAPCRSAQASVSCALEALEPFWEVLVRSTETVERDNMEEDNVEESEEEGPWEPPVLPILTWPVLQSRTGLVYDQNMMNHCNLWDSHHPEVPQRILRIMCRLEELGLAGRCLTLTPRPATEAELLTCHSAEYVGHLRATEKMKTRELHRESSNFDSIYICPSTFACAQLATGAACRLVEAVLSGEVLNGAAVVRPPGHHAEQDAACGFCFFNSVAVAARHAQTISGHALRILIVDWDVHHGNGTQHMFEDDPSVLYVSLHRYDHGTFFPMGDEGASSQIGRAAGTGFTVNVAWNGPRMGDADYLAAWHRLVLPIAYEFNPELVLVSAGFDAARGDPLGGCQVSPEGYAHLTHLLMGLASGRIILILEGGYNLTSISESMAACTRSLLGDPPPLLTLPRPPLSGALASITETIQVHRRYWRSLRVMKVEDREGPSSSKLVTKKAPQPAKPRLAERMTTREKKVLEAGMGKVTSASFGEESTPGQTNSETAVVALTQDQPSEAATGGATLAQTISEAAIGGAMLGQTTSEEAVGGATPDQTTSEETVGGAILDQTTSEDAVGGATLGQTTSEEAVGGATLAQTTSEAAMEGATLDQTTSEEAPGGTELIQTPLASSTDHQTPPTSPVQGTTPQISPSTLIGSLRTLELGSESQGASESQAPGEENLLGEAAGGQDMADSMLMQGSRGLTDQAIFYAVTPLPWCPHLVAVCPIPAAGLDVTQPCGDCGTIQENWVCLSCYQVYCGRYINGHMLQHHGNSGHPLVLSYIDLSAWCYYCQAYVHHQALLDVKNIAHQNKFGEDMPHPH
# Experimental details: HDAC6 enzyme activity inhibition assay (HDAC Fluorimetric Drug Discovery Kit)
# Format: biochemical
# Run conditions: human recombinant HDAC6, same protocol as HDAC1; read-out: HDAC6
Measure: IC50 (nM)
I only need the number, in nM, no unit after it.

Exam item: What does the data say about its IC50? Entry: O=C(N1CCS(=O)(=O)CC1)N(Cc1ccc(-c2nnc(C(F)F)o2)cc1)c1ccc(-c2ccccc2)cc1 [Compound 21486]
Marked response: 83

Exam item: Given the compound CN(CCO)C(=O)N(Cc1ccc(-c2nnc(C(F)F)o2)cc1)c1ccccc1 [Compound 21585] , what is its reported IC50?
Marked response: 27
